Biological target: UniProt:Q14123
Sequence (Q14123 whole entry): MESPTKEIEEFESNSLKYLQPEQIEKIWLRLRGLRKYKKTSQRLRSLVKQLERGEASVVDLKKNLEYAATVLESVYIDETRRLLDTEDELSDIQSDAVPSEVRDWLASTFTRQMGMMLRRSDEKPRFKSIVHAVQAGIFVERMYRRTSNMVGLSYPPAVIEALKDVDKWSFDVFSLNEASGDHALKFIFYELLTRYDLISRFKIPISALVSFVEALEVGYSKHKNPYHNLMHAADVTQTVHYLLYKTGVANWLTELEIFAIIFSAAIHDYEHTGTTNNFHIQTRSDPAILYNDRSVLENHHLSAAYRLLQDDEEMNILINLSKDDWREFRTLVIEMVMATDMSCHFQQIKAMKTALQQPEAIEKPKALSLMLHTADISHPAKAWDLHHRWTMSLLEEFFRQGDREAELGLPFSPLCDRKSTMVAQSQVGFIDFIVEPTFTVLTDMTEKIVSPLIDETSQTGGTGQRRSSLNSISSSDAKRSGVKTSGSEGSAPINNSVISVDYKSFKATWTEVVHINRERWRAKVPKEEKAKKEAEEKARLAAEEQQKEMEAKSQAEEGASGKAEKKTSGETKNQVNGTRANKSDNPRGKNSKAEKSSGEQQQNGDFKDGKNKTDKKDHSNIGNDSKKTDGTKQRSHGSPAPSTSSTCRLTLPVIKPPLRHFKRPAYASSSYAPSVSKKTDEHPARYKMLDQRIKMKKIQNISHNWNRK
parameter.measured: IC50 (nM)

[1] CCOc1ncccc1-c1cc(NCc2cc(C)[nH]n2)c2c(C(C)C)nc(C)n2n1 [Example 13]
[2] CCOc1ncccc1-c1cc(NCc2cncc(OC)c2)c2c(C(C)C)nc(C)n2n1 [Example 14]
Of the two listed items, 1 and 2 , which carries the larger IC50 figure? Kindly give the label for the entry you pick.
2
(2: 5.1 nM, 1: 2.7 nM)

[1] CCOc1ncccc1-c1cc(NCc2cccnc2F)c2c(C(C)C)nc(C)n2n1 [Example 73]
[2] CCOc1ncccc1-c1cc(NCc2noc(C)n2)c2c(C(C)C)nn(C)c2n1 [Example 5]
Of the two listed items, 1 and 2 , which carries the larger IC50 figure? Kindly give the label for the entry you pick.
1
